# TGI per entry
# System: subcutaneous xenograft tumor model of human B lymphocyte Pfeiffer
# Experimental details: In vivo efficacy in subcutaneous xenograft tumor model of human B lymphocyte Pfeiffer
# Parameters: species or system mouse
# Measurement context: SCID Beige mice, 100 mg/kg p.o. QD 21 days, tumor volume 21 days after administration
Metric name: TGI (%)

[
  {
    "Molecule": "CCN(c1cc(OC2CN(C)C2)cc(C(=O)NCc2c(C)cc(C)[nH]c2=O)c1C)C1CCC(N(C)C)CC1 (centres unmarked) [EPZ349, reference compound]",
    "Test value": 22.39
  },
  {
    "Molecule": "CCN(c1cc(O[C@H]2C[C@H](N3CCOCC3)C2)cc(C(=O)NCc2c(C)cc(C)[nH]c2=O)c1C)C1CCC(F)(F)CC1",
    "Test value": 53.67
  },
  {
    "Molecule": "CCN(c1cc(O[C@H]2C[C@H](N3C[C@@H](C)O[C@@H](C)C3)C2)cc(C(=O)NCc2c(C)cc(C)[nH]c2=O)c1C)C1CCC(F)(F)CC1",
    "Test value": 66.20
  },
  {
    "Molecule": "CCN(c1cc(O[C@H]2C[C@H](N3C[C@@H](C)O[C@@H](C)C3)C2)cc(C(=O)NCc2c(OC)cc(C)[nH]c2=O)c1C)C1CC2CCC(C1)O2 (some centres unmarked)",
    "Test value": 32.83
  },
  {
    "Molecule": "CCN(c1cc(O[C@H]2C[C@H](N3C[C@@H](C)O[C@@H](C)C3)C2)cc(C(=O)NCc2c(OC)cc(C)[nH]c2=O)c1C)C1CCC(F)(F)CC1",
    "Test value": 42.84
  }
]

Source of measurements: patent US12390472B2
